- Tested on: HL-60
- Method Notes: Cytotoxicity against human HL-60 cells incubated for 72 hrs by MTT reagent based spectrophotometric analysis
- Type: functional, cell-based
- Run Parameters: HL-60, 72 h
Endpoint Name: IC50 (nM)

compound="O=C1C=C(C(O)C[N+](=O)[O-])C(=O)c2c(O)ccc(O)c21 (stereo unspecified)" endpoint_name=IC50 recorded_measurement=140

----------
- System: HepG2
- Method Notes: Antiproliferative activity against human HepG2 cells assessed as inhibition of cell growth incubated for 48 hrs by MTT reagent based colorimetric assay
- Assay type: functional
- Run Parameters: HepG2, 48 h
pIC50: −log10 of the molar value.
Endpoint Name: pIC50

compound="COc1cc(C2C3=C(Nc4cc5c(cc42)OCO5)C(=O)c2ccccc2C3=O)cc(OC)c1OC (stereo unspecified)" endpoint_name=pIC50 recorded_measurement=4.84

----------
- Tested on: HepG2
- Method Notes: Cytotoxicity against human HepG2 cells incubated for 48 hrs by MTT assay
- Assay type: functional, cell-based
- Run Parameters: HepG2, 48 h
Endpoint Name: IC50

item_smiles=C[C@@H](CC[C@H]1O[C@H]2C[C@H]3[C@@H]4CC=C5C[C@@H](O)CC[C@]5(C)[C@H]4CC[C@]3(C)[C@H]2[C@@H]1C)COC1=C(Cl)C(=O)c2ccccc2C1=O study_system=HepG2 recorded_measurement="1240 nM"

----------
- Method Notes: Cytotoxicity against mouse JB6 Cl 41-5a cells incubated for 24 hrs by MTT reagent based microplate reader analysis
- Format: toxicity, cell-based
Endpoint Name: IC50 at 24 h (nM)

item_smiles=O=C1C2=C(O[C@@H]3[C@@H](O)[C@@H](O)CO[C@H]3S2)C(=O)c2c(O)cccc21 endpoint_name="IC50 at 24 h" recorded_measurement=700

----------
- System: DU-145
- Method Notes: Cytotoxicity against human DU-145 cells incubated for 48 hrs by MTT assay
- Type: functional, cell-based
- Run Parameters: DU-145, 48 h
Endpoint Name: IC50

item_smiles=COc1cc(N)cc(OC)c1C1=C(C(C)=O)C(=O)c2ccccc2C1=O study_system=DU-145 endpoint_name=IC50 recorded_measurement="12.3 µM"

----------
Recorded IC50 by entry
- Method Notes: Antiproliferative activity against human SNU-216 cells assessed as inhibition of cell growth incubated for 24 hrs by MTT reagent based microplate reader assay
- Type: functional
- Run Parameters: SNU-216, 24 h
Endpoint Name: IC50

item_smiles=COc1ccc(SC2=CC(=O)c3c(OC)ccc(OC)c3C2=O)cc1 endpoint_name=IC50 recorded_measurement="1220 nM"
item_smiles=COc1ccc(OC)c2c1C(=O)C=C(Sc1ccc3ccccc3c1)C2=O endpoint_name=IC50 recorded_measurement="890 nM"

----------
- Test system: AGS
- Method Notes: Antiproliferative activity against human AGS cells assessed as inhibition of cell growth incubated for 72 hrs by MTT assay
- Assay type: functional, cell-based
pIC50: −log10 of the molar value.
Endpoint Name: pIC50

item_smiles=CC(=O)N(C1=C2NCCN=C2c2ccccc2C1=O)c1ccccc1 endpoint_name=pIC50 recorded_measurement=4.81

----------
- Test system: MKN-45
- Method Notes: Antiproliferative activity against human MKN-45 cells assessed as inhibition of cell growth incubated for 24 hrs by MTT reagent based microplate reader assay
- Format: functional
- Run Parameters: MKN-45, 24 h
Endpoint Name: IC50 (µM)

item_smiles=COc1ccc(SC2=CC(=O)c3c(OC)ccc(OC)c3C2=O)cc1 study_system=MKN-45 recorded_measurement=0.63
item_smiles=COc1ccc(OC)c2c1C(=O)C=C(Sc1ccc3ccccc3c1)C2=O study_system=MKN-45 recorded_measurement=0.82

----------
- Tested on: HCT-116
- Method Notes: Cytotoxicity against human HCT-116 cells incubated for 24 hrs by CCK-8 assay
- Format: functional, cell-based
- Run Parameters: HCT-116, 24 h
pIC50: −log10 of the molar value.
Endpoint Name: pIC50

item_smiles=CC(C)=CC[C@H](O)C1=CC(=O)c2c(O)ccc(O)c2C1=O recorded_measurement=5.40

----------
- Method Notes: Antiproliferative activity against human LA-N-1 cells assessed as inhibition of cell growth incubated for 48 hrs by MTT assay
- Format: functional, cell-based
- Run Parameters: LAN1, 48 h
Endpoint Name: IC50 (nM)

item_smiles=COCCSC1=C(C)C(=O)c2ccccc2C1=O unit_label=nM recorded_measurement=1550

----------
- Tested on: MKN-28
- Method Notes: Antiproliferative activity against human MKN-28 cells assessed as inhibition of cell growth incubated for 24 hrs by MTT reagent based microplate reader assay
- Format: functional
- Run Parameters: MKN-28, 24 h
Listed here are compounds together with their documented IC50.
Endpoint Name: IC50 (nM)

item_smiles=COc1ccc(SC2=CC(=O)c3c(OC)ccc(OC)c3C2=O)cc1 endpoint_name=IC50 recorded_measurement=560
item_smiles=COc1ccc(OC)c2c1C(=O)C=C(Sc1ccc3ccccc3c1)C2=O endpoint_name=IC50 recorded_measurement=1200

----------
- System: MCF7
- Method Notes: Cytotoxicity against human MCF7 cells assessed as inhibition of cell growth incubated for 72 hrs by sulforhodamine B assay
- Type: functional, cell-based
- Run Parameters: MCF7, 72 h
pIC50: −log10 of the molar value.
Endpoint Name: pIC50

item_smiles=CN(C)N1C=C2C[C@@H](O[Si](C)(C)C(C)(C)C)[C@@H]3OC(C)(C)O[C@@H]3[C@H]2C2=C1C(=O)c1c(O)cccc1C2=O endpoint_name=pIC50 recorded_measurement=4.80

----------
- Tested on: Calu-1
- Method Notes: Cytotoxicity against human Calu-1 cells incubated for 48 hrs by MTT assay
- Format: functional, cell-based
- Run Parameters: Calu-1, 48 h
Endpoint Name: IC50

item_smiles=O=C1C(Cl)=C(NCCN2CCOCC2)C(=O)c2ccccc21 recorded_measurement="4.39 µM"

----------
- Test system: TK-10
- Method Notes: Cytotoxicity against human TK-10 cells by sulforhodamine B staining based spectrophotometric analysis
- Type: functional, cell-based
pIC50: −log10 of the molar value.
Endpoint Name: pIC50

item_smiles=O=C1C(CSc2ccc(F)cc2)=C(C2=C(CSc3ccc(F)cc3)C(=O)c3ccccc3C2=O)C(=O)c2ccccc21 recorded_measurement=5.42

----------
- Test system: MV4-11
- Method Notes: Cytotoxicity against human MV4-11 cells
- Format: functional, cell-based
pEC50: −log10 of the molar value.
Endpoint Name: pEC50

item_smiles=O=C(Cc1ccc(C(=O)NO)cc1)NC1=CC(=O)c2ccccc2C1=O endpoint_name=pEC50 recorded_measurement=6.44

----------
- Tested on: C-33-A
- Method Notes: Antiproliferative activity against human C-33-A cells assessed as inhibition of cell growth by crystal violet staining based spectrophotometric assay
- Format: functional
Endpoint Name: IC50

molecule="O=C1C(Cl)=C(NC(Cc2ccc(O)cc2)C(=O)O)C(=O)c2ccccc21 (stereo unspecified)" study_system=C-33-A recorded_measurement="1 nM"

----------
- System: HepG2
- Method Notes: Antiproliferative activity against human HepG2 cells incubated for 72 hrs by MTT assay
- Format: functional, cell-based
- Run Parameters: HepG2, 72 h
Endpoint Name: IC50 (µM)

item_smiles=CC(C)=CC[C@H](OC(=O)C1CCOCC1)C1=CC(=O)c2c(O)ccc(O)c2C1=O endpoint_name=IC50 recorded_measurement=14.8

----------
- Test system: HeLa
- Method Notes: Cytotoxicity against human HeLa cells by sulforhodamine B staining based spectrophotometric analysis
- Assay type: functional, cell-based
pIC50: −log10 of the molar value.
Endpoint Name: pIC50

item_smiles=O=C1C(CSc2ccc(F)cc2)=C(C2=C(CSc3ccc(F)cc3)C(=O)c3ccccc3C2=O)C(=O)c2ccccc21 recorded_measurement=4.50

----------
- Tested on: A549
- Method Notes: Antiproliferative activity against human A549 cells assessed as reduction in cell growth incubated for 48 hrs by MTT reagent based microplate reader assay
- Type: functional
- Run Parameters: A549, 48 h
pIC50: −log10 of the molar value.
Endpoint Name: pIC50

molecule="CC1=C(C2CC(=O)N(C)C2=O)C(=O)c2c(O)cccc2C1=O (stereo unspecified)" endpoint_name=pIC50 recorded_measurement=5.21

----------
- Method Notes: Antiproliferative activity against human NCI-H358M cells assessed as inhibition of cell growth incubated for 72 hrs by MTT assay
- Format: functional, cell-based
Endpoint Name: IC50 (µM)

item_smiles=C[C@H](NC1=CC(=O)c2ccccc2C1=O)C(=O)O recorded_measurement=3.36

----------
- Test system: Huh-7
- Method Notes: Cytotoxicity against human Huh-7 cells assessed as inhibition of cell growth incubated for 72 hrs by resazurin assay
- Format: functional, cell-based
- Run Parameters: Huh-7, 72 h
Endpoint Name: IC50 (µM)

compound="CCOC(=O)C(NC1=C(Cl)C(=O)c2ccccc2C1=O)C(C)=O (stereo unspecified)" endpoint_name=IC50 recorded_measurement=18.3

----------
- Tested on: SW480
- Method Notes: Cytotoxicity against human SW480 cells assessed as inhibition of cell growth incubated upto 72 hrs by MTT assay
- Assay type: functional, cell-based
- Run Parameters: SW480, 72 h
pIC50: −log10 of the molar value.
Endpoint Name: pIC50

item_smiles=CC(C)=CCC/C(C)=C/CC/C(C)=C/CC1=C(O)C(=O)c2ccccc2C1=O recorded_measurement=5.69

Reference source: ChEMBL document CHEMBL5512632
